Assayed target: EP4 receptors (Homo sapiens, UniProt P35408)
Construct: expressed in transfected cells; host or cells: HEK-293
Sequence (P35408 whole entry): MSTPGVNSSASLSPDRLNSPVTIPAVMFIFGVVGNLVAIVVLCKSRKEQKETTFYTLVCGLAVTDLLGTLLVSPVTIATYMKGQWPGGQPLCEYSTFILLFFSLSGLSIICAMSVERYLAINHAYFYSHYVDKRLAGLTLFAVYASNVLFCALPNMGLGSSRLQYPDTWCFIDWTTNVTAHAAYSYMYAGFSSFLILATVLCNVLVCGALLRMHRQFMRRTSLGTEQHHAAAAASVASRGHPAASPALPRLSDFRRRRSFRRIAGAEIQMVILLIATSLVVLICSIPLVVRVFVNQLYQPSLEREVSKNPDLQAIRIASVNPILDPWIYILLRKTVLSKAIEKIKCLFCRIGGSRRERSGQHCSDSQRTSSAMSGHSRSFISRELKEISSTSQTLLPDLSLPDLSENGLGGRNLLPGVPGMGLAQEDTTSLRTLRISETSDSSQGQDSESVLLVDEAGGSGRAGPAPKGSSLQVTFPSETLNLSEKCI
Assay details: Radioligand binding ([3H]PGE2), EP4
Condition set: Table 3, third part; read-out: BINDING-Ki (nM) EP4
Property name: Ki

# Compound, Assayed target, Property name, Experimental value
records = [
    ("CCCCCC(C)c1ccc([C@@H]2[C@@H](C/C=C\\CCCC(=O)O)[C@H](C#N)C[C@H]2C)cc1 (stereo partly shown)", "EP4 receptors (Homo sapiens, UniProt P35408)", "Ki", "> 10000 nM"),
]

* * *

Assayed target: hTP (Homo sapiens, UniProt P21731)
Construct: expressed in transfected cells; host or cells: HEK-293(EBNA)
Sequence (P21731 whole entry): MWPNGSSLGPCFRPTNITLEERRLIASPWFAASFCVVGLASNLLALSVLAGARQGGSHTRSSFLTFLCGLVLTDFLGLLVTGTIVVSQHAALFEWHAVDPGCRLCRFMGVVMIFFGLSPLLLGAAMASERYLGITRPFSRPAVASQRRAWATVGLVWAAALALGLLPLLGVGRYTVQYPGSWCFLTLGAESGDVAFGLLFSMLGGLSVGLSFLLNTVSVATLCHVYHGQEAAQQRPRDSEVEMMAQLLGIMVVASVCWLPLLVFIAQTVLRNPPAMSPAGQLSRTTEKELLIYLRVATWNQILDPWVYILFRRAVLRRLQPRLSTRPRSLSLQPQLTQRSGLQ
Assay details: FLIPR calcium signal, hTP
Format: cell-based
Condition set: read-out: Other Receptors EC50 hTP
Method: […] Cells were excited with an Argon laser at 488 nm, and emission was measured through a 510-570 nm bandwidth emission filter (FLIPR™, Molecular Devices, Sunnyvale, Calif.). […] The peak increase in fluorescence intensity was recorded for each well. […] The peak fluorescence change in each drug-containing well was then expressed relative to the controls. […]
pEC50: −log10 of the molar value.

# Mol smiles, Assayed target, pEC50
records = [
    ("CC(C)(C)c1ccc(N2C(=O)CC[C@@H]2COCc2ccc(C(=O)O)s2)cc1", "hTP (Homo sapiens, UniProt P21731)", "< 5.00"),
]
